# Target under test: DLA2 ΔCat (Chlamydomonas reinhardtii, UniProt A0A2K3DW88 32-269)
# Test: MST

| Binder | Kd / nM |
| --- | --- |
| UUUACGGAGAAAUUAAAACUUUAAAAAAAUUAACAUAUGACCAUGGAUC (ssRNA) [psbA 5'-UTR probe native] | 911 |
